# Assayed system: Cl^- r (Homo sapiens)
# Construct: Cl^- r^f
# Sequence (P00736 464-705 limits assumed): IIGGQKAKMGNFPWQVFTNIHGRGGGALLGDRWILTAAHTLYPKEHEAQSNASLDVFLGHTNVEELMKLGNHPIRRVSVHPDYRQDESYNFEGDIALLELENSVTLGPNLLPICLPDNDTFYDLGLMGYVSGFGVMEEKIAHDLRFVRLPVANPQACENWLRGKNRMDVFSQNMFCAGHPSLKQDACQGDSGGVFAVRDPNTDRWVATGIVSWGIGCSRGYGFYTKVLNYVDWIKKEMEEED
# Sequence (P00736 18-463 partner limits assumed): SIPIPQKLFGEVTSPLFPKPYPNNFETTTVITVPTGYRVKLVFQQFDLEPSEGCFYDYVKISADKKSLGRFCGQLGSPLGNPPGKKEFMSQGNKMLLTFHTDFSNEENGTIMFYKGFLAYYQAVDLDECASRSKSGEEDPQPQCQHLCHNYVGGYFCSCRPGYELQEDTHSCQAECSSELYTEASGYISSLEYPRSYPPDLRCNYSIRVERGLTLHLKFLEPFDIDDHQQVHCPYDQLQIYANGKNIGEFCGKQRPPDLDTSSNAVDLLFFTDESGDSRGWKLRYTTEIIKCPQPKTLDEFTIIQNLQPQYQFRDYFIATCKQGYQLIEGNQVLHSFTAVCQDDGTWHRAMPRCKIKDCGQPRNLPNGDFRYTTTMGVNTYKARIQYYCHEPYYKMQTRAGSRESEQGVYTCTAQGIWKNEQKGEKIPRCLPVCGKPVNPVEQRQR
# Assay text: Inactivation rate of complement protein C1r
# Assay type: biochemical
# Condition description: Table II; pH 7.5, 25° C; [I] 4.6 to 470 μM; read-out: kobs/[I]
Some compounds, each annotated with its measured log10(kinact/KI).
Log scale reminder: kinact/KI in M⁻¹ s⁻¹, then log10 taken.

Recorded log10(kinact/KI), per entry:
O=c1oc(Cl)c(Cl)c2ccccc12 [3,4-dichloroisocoumarin, reference compound] : 1.62
N=C(N)SCCCOc1oc(=O)c2ccccc2c1Cl : 3.82
N=C(N)Nc1ccc2c(Cl)c(OCCc3ccccc3)oc(=O)c2c1 : 2.53
CCOc1oc(=O)c2cc(NC(=N)N)ccc2c1Cl : 2.38

input: In one line, give reported log10(kinact/KI) of the entry `N=C(N)SCCCOc1oc(=O)c2cc(N)ccc2c1Cl` .
output: 3.12

input: In one line, give reported log10(kinact/KI) of the entry `COc1oc(=O)c2cc(NC(=N)N)ccc2c1Cl` .
output: 1.88

Data provenance is patent US5324648A.
